Tested on: LOX IMVI melanoma
Experimental Protocol: NCI tumour cell line growth inhibition, 48 h
The following compounds are listed with their measured TGI values.

Solved entries (count: 6):
Compound | TGI
CC(C)(C)c1cc(C2NC(=O)NC2=O)cc(C(C)(C)C)c1O (centres undefined) | > 100 µM
O=C1c2ccccc2C2(O)Oc3cccc(O)c3C12O (centres undefined) | > 100 µM
Cc1nn(-c2ccccc2)c2c1N=C(C(=O)O)CC(c1ccccc1)=N2 | > 10 µM
C=C(C(=O)OC)[C@@H]1C[C@@H](O)[C@]2(C)CC/C=C(\C)CCC[C@H](C)[C@H](O)C1O2 | > 100 µM
N#Cc1nc(Nc2ccc([N+](=O)[O-])cc2)sc1N | 28.6 µM
COc1ccc(/C=C/C(C(=O)O)C(=O)O)cc1 | 39.5 µM

*Q* May I ask what TGI has been recorded for NC(=S)N/N=C(\C(=O)Nc1ccc(Cl)c(Cl)c1)C1=NN(c2ccccc2)C(c2cccc([N+](=O)[O-])c2)CC1=O (centres undefined) ?
*A* 30.8 µM

*Q* Reported TGI, compound O=c1c2cccnc2ncn1CCCN1CCOCC1 : ____
*A* > 100 µM

*Q* Give the measured TGI of COc1cc([C@@H]2c3cc4c(cc3[C@@H](Nc3ccc(NC(=O)c5cc(NC(=O)c6cc([N+](=O)[O-])cn6C)cn5C)cc3)[C@H]3COC(=O)[C@H]23)OCO4)cc(OC)c1O .
*A* > 44.1 µM

###

Tested on: SNB-19 CNS
Experimental Protocol: NCI tumour cell line growth inhibition, 48 h; in the data active = GI50 below about 0.43 µM; inactive = the rest
The categories you may choose from are active, inactive

Compound | Class
Oc1ccc(-c2nc3ccc4[nH]ncc4c3c3c2CCCC3)c2cccnc12 | active
COc1ccc(-c2nn(-c3cccc(NC(=O)Nc4cccc(C(F)(F)F)c4)c3)cc2-c2ccncc2)cc1Cl | inactive
C=C1C(=O)O[C@H]2[C@H]1CC/C(COC(=O)C(=O)c1cn(C)c3ccc(OC)cc13)=C\CC[C@@]1(C)O[C@@H]21 | inactive

*Q* What classification did Clc1ccc(-c2cn(-c3ccccc3)c(-c3ccccc3)n2)c(Cl)c1 end up with in this test?
*A* inactive

*Q* What is the recorded call for this compound in the test? CCC(C)CC(CC)NCCN1CCN(C(CC)CC(C)CC)C1=S (stereo not given)
*A* inactive

*Q* For O=C(Nc1ccccc1F)c1ccc(NC2=C(Cl)C(=O)N(Cc3ccccc3)C2=O)cc1 , which call appears in the assay record?
*A* inactive

*Q* Fill in: this test's call for CN1CCN(c2cc(Nc3cc(C4CC4)[nH]n3)nc(Nc3ccc(CC(=O)NCc4cccc(F)c4)cc3)n2)CC1 is ___
*A* inactive

*Q* Please let me know the test result on file for Nc1c(O)c(S(=O)(=O)O)c(O)c2c1C(=O)c1ccccc1C2=O .
*A* inactive

*Q* Query: recorded result category for COc1ccc2c(c1)C(=O)c1c-2n(CCCCl)c(=O)c2cc(N(C)C)ccc12 in this test
*A* inactive

*Q* Assay result, entry COc1ccc(-c2[nH]ncc2-c2cc(OC)c(OC)c(OC)c2)cc1 — outcome?
*A* active

###

System: M14 melanoma
Experimental Protocol: NCI tumour cell line growth inhibition, 48 h; in the data active means GI50 below about 0.43 µM; inactive means the rest
Bench note: report the call from class 1 for active, class 0 for inactive

Before answering, review these 3 worked examples.
Compound | Tested System | Class
CCCCc1nc2cc(/C=C/C(=O)NO)ccc2n1CCN(CC)CC | M14 melanoma | class 1
COC1CCC(n2c([C@@H]3CCCC(=O)N3c3ccc(F)c(F)c3)nc3cc(-c4c(C)noc4C)ccc32)CC1 (stereo partly specified) | M14 melanoma | class 0
COC(=O)[C@]12CC[C@@H](C)[C@H](C)[C@@H]1C1=CC[C@@H]3[C@@]4(C)C=C(O)C(=O)C(C)=C4CC[C@@]3(C)[C@]1(C)CC2 | M14 melanoma | class 0

*Q* Dear all, I need the recorded test outcome for COc1ccc(C(=O)N/N=C/c2ccc(O)cc2O)cc1Nc1ccnc(C(F)(F)F)c1 , thank you.
*A* class 0

*Q* Please let me know the test result on file for COc1cc2c3c(n(C)c(=O)c2cc1OC)-c1cc2c(cc1/C3=C\[C@@H](N)CCCCN)OCO2 .
*A* class 0

*Q* // return assay outcome for COc1ccc2sc3c(NCCCNCCO)nc4ccccc4c3c(=O)c2c1
*A* class 0

###

System: DMS 114 small cell lung
Experimental Protocol: NCI tumour cell line growth inhibition, 48 h
// reported TGI per item

Compound | TGI
COc1cc(/C=C2\CCc3ccccc3C2=O)cc(OC)c1OC | 25.1 µM
CC(=O)OC1C(O)C(C)OC(OC(=O)C2CCC3C(C2)OC2(CC(OC(=O)/C=C/c4ccccc4)C(C)CO2)C32CO2)C1OC1OC(C)C(O)C(O)C1O (stereo not given) | 0.0563 µM
O=C1c2ccccc2C2(O)Oc3cccc(O)c3C12O (stereo not given) | > 100 µM
CCc1cccc(C(C)CC)c1NC(=O)CC1C(=O)Nc2ccccc2S1=O (stereo not given) | > 100 µM
O=c1cc2cc(O)[nH]c(=O)c2c(O)[nH]1 | > 100 µM

*Q* Form field - read-out: TGI; system: DMS 114 small cell lung; submitted item: CC(C)(Oc1ccc(C(=O)c2ccc(Cl)cc2)cc1Cl)C(=O)N1CCN(c2ccccc2)CC1
*A* > 100 µM

*Q* Record C/C(=C/c1c(C)[nH]c(=O)[nH]c1=O)C(=O)O : what is its TGI with DMS 114 small cell lung?
*A* > 1380 µM

*Q* For the record Cc1ccc(Nc2ccc(Nc3ccc(C)cc3S(=O)(=O)O)c3c2C(=O)c2ccccc2C3=O)c(S(=O)(=O)O)c1 , what value of TGI is listed for DMS 114 small cell lung?
*A* > 100 µM

*Q* Checklist item: TGI tested on DMS 114 small cell lung, entry CCCCCCCCCC(=O)N[C@H]1CCc2cc(OC)c(OC)c(OC)c2-c2ccc(SC)c(=O)cc21 , value?
*A* 0.0403 µM

*Q* Any idea what TGI came out for CC(C)(C)C(=O)OCC(COC(=O)C(C)(C)C)[N+](=O)[O-] on DMS 114 small cell lung?
*A* > 100 µM

###

Tested on: MOLT-4 leukemia
Experimental Protocol: NCI tumour cell line growth inhibition, 48 h
# cutoff 30 µM applies to TGI; >= gives criterion met, < gives criterion not met

*Q* Hello, I need to know if Nc1c(O)c(S(=O)(=O)O)c(O)c2c1C(=O)c1ccccc1C2=O has measured TGI not below 30 µM. Thanks!
*A* criterion not met

###

Test system: HT29 colon
Experimental Protocol: NCI tumour cell line growth inhibition, 48 h
Assay Endpoint: TGI (µM)
Express your answer in µM, writing the number without its unit.

Take a look at these entries with their results.
Compound | Endpoint Unit | TGI
O=C1C=C(NCCc2cc(Br)c(O)c(Br)c2)C(=O)c2[nH]cnc21 | µM | 80.8
COc1c(Cl)c(Cl)c(OC)c2c1C(=O)C=CC2=O | µM | 87.2
CN(C)CCCC(=O)Nc1ccc(Cn2nnc3c2C(=O)c2nnn(Cc4ccc(NC(=O)CCCN(C)C)cc4)c2C3=O)cc1 | µM | 7.87

*Q* Can you share its TGI? I mean this compound: O=Cc1cc(O)c(O)c(/C=N/n2c3ccccc3c3ccccc32)c1
*A* 48.1

*Q* Consider the compound O=C1C(=O)c2c(nc3ncccn23)-c2ccccc21 and give its measured TGI.
*A* 2.29

*Q* Param item = CC1(C)CC[C@]2(C(=O)O)CC[C@]3(C)[C@H](CC[C@@H]4[C@@]5(C)CCC(=O)C(C)(C)[C@@H]5CC[C@]43C)[C@H]2[C@H]1OC(=O)C(F)(F)F ; retrieve measured TGI.
*A* 16.7

###

Tested on: IGROV1 ovarian
Experimental Protocol: NCI tumour cell line growth inhibition, 48 h
Assay Endpoint: TGI (µM)
The figure you give is taken to be in µM; do not add the unit.

Compound | Tested System | Endpoint Unit | TGI
C=C(C(=O)OC)[C@@H]1C[C@@H](O)[C@]2(C)CC/C=C(\C)CCC[C@H](C)[C@H](O)C1O2 | IGROV1 ovarian | µM | 73.5

*Q* Item under review: OC(C(=Nc1ccccc1)c1ccccc1)c1ccccc1 (stereo not given) . Reported TGI?
*A* 51.7

###

Test system: KM12 colon
Experimental Protocol: NCI tumour cell line growth inhibition, 48 h
In this section, each of the compounds is paired with its reported TGI.

See these solved cases before continuing.
Compound | Test Result
c1csc(-c2nnc(C34CC5CC(CC(C5)C3)C4)o2)c1 | > 100 µM
N#CC(=S)Nc1ccc(F)cc1 | > 100 µM
CN(C)CCCC(=O)Nc1ccc(Cn2nnc3c2C(=O)c2nnn(Cc4ccc(NC(=O)CCCN(C)C)cc4)c2C3=O)cc1 | 22.7 µM
O=C(NC(CO)CO)c1ccc2cc(C(=O)N3CC(CCl)c4ccc([N+](=O)[O-])cc43)[nH]c2c1 (stereo not given) | > 100 µM

*Q* I am curious: what TGI value has been reported for C/C(=N\n1c(Cc2ccccc2)n[nH]c1=O)c1ccc([N+](=O)[O-])cc1 ?
*A* > 100 µM
